# Test system: HBV
# PROCEDURE SUMMARY: microbe, parasite or virus in culture
# Format: cell-based, hepatitis B virus genotype D
# STATED CONDITIONS: p2 inhibitor, hit confirmation DRC, 10-point serial dilutions starting at 25 μM
VALUE TYPE: pEC50
Give bare numbers, as −log10 of the molar value.

Query block: Entry CC(C)(C)c1cc(C(=O)/C=C/c2ccc(C(=O)O)cc2)cc(C(C)(C)C)c1 , system HBV: what pEC50 was measured?
Result block: 5.49

====

# TEST SYSTEM: NTCP (Homo sapiens, UniProt Q14973)
# Sequence (Q14973 1-349): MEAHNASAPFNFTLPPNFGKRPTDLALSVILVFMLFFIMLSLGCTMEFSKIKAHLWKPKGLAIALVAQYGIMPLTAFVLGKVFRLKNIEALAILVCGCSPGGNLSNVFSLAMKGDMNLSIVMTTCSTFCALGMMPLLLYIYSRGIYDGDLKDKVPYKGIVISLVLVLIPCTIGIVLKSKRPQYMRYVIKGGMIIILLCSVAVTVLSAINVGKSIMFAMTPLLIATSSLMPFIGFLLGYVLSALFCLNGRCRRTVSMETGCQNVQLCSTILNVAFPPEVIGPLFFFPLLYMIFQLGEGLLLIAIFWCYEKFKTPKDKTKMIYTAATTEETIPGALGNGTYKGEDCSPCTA
# PROCEDURE SUMMARY: Binding assay of Alexa633-labelled HBV preS1 peptide
VALUE TYPE: EC50 (µM)
One number for each entry, in µM.

Query block: Form field: reported EC50 of O=C(Nc1cccc2c(=O)cc(-c3nnn[nH]3)oc12)c1ccc(OCCCCc2ccccc2)cc1
Result block: 7.6
